Here the recorded pIC50 is given for each entry.
# Tested on: A549
# Assay Text: Cytotoxicity against human A549 cells assessed as reduction in viability after 48 hrs by SRB assay
# Format: functional, cell-based
# Test Settings: A549, 48 h
pIC50: −log10 of the molar value.

Molecule: C[N+]1=C(/C=C/c2ccc(N3CCNCC3)cc2)C(C)(C)c2ccccc21
pIC50: 4.87
//
Molecule: O=c1[nH]cc(F)c(=O)[nH]1 [FLUOROURACIL]
pIC50: 5.15
//
Molecule: CC1(C)CC(/C=C/c2ccc(N3CCNCC3)cc2)=CC(=C(C#N)C#N)C1
pIC50: 5.15
//
Molecule: C[N+]1=C(/C=C/c2ccc(N)cc2)C(C)(C)c2ccccc21
pIC50: 5.41
//
Molecule: C[N+]1=C(/C=C/c2ccc(N3CCCCC3)cc2)C(C)(C)c2ccccc21.[I-]
pIC50: 5.96
